Each entry below lists one item and its recorded PT ratio (INR) value.
- System: blood coagulation
- ASSAY_PROTOCOL: PT and aPTT assay in cynomolgus monkeys (Example 46)
- Format: in vivo
- TEST_PARAMETERS: Day 31; platelet poor plasma; relative to PBS group
Strand notation (5' to 3'): a small letter for the sugar, then the base; units joined by * are phosphorothioate-linked, units joined directly phosphodiester-linked; [ ] holds rarer units or linkages, { } end groups; capitals alone tell only the bases. e = 2'-O-(2-methoxyethyl) (MOE); [5mC] = 5-methylcytosine; d = 2'-deoxy (DNA)

Problem: Data request, read-out PT ratio (INR), for ISIS 445522: 5-8-5 or 6-8-6 MOE microwalk gapmer (Table 44) (antisense eG*e[5mC]*eA*e[5mC]*eA*dG*dT*dT*dT*d[5mC]*dT*dG*dG*e[5mC]*eA*eG*eG*e[5mC])
Result: 0.96

Problem: Data request, read-out PT ratio (INR), for ISIS 449708: 3-8-3, 4-8-4, 2-10-2, 3-10-3 or 4-10-4 MOE microwalk gapmer (Table 46) (antisense eA*e[5mC]*eA*dG*dT*dT*dT*d[5mC]*dT*dG*dG*e[5mC]*eA*eG)
Result: 1.06

Problem: Data request, read-out PT ratio (INR), for ISIS 449707: 3-8-3, 4-8-4, 2-10-2, 3-10-3 or 4-10-4 MOE microwalk gapmer (Table 46) (antisense e[5mC]*eA*e[5mC]*eA*dG*dT*dT*dT*d[5mC]*dT*dG*dG*e[5mC]*eA*eG*eG)
Result: 0.96

Problem: Data request, read-out PT ratio (INR), for ISIS 416850: MOE gapmer, nucleobases 1275 to 1318 of SEQ ID NO: 1 (Table 8) (antisense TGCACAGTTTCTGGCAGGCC; MOE gapmer, wing and gap sizes not given here)
Result: 1.00

Problem: Data request, read-out PT ratio (INR), for ISIS 416858: MOE gapmer, nucleobases 1275 to 1318 of SEQ ID NO: 1 (Table 8) (antisense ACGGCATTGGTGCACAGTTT; MOE gapmer, wing and gap sizes not given here)
Result: 1.00

Continuing:
Problem: Data request, read-out PT ratio (INR), for ISIS 449710: 3-8-3, 4-8-4, 2-10-2, 3-10-3 or 4-10-4 MOE microwalk gapmer (Table 46) (antisense e[5mC]*eA*e[5mC]*dA*dG*dT*dT*dT*d[5mC]*dT*dG*dG*d[5mC]*eA*eG*eG)
Result: 0.98

Problem: Data request, read-out PT ratio (INR), for ISIS 445531: 5-8-5 or 6-8-6 MOE microwalk gapmer (Table 44) (antisense eG*eG*e[5mC]*eA*eT*dT*dG*dG*dT*dG*d[5mC]*dA*d[5mC]*eA*eG*eT*eT*eT)
Result: 1.04

* * *

- System: fibrinogen
- ASSAY_PROTOCOL: Fibrinogen assay (Example 45)
- Format: in vivo, cynomolgus monkeys
- TEST_PARAMETERS: plasma; day 22; escalating dose regimen
ENDPOINT_LABEL: fibrinogen levels (mg/dL)
Provide the reading as a plain figure in mg/dL.

Problem: Data request, read-out fibrinogen levels, for ISIS 416850: MOE gapmer, nucleobases 1275 to 1318 of SEQ ID NO: 1 (Table 8) (antisense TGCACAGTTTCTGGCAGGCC; MOE gapmer, wing and gap sizes not given here)
Result: 243

Continuing:
Problem: Data request, read-out fibrinogen levels, for ISIS 416858: MOE gapmer, nucleobases 1275 to 1318 of SEQ ID NO: 1 (Table 8) (antisense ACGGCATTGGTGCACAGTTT; MOE gapmer, wing and gap sizes not given here)
Result: 222
